These entries and their values trace back to paper PMC11449996.

Test: Population pharmacokinetic model of dalbavancin
Assay type: in vivo, patients
Settings: human, plasma, intravenous, 1500 mg
endpoint: clearance (mL/min)

| molecule | endpoint | measValue |
| --- | --- | --- |
| CN[C@H]1C(=O)N[C@@H]2Cc3ccc(cc3)Oc3cc4cc(c3O[C@@H]3O[C@H](C(=O)O)[C@@H](O)[C@H](O)[C@H]3NC(=O)CCCCCCCCC(C)C)Oc3ccc(cc3Cl)[C@@H](O)[C@@H]3NC(=O)[C@H](NC(=O)[C@@H]4NC(=O)[C@@H](NC2=O)c2cc(cc(O)c2Cl)Oc2cc1ccc2O)c1ccc(O)c(c1)-c1c(O[C@H]2O[C@H](CO)[C@@H](O)[C@H](O)[C@@H]2O)cc(O)cc1[C@@H](C(=O)NCCCN(C)C)NC3=O [dalbavancin, Dalbavancin] | clearance | 0.75 |
